Here's what we have: log10 IC50 numbers for Histone deacetylase 8 (Homo sapiens, UniProt Q9BY41).
Would you kindly interpret these values as log10 of IC50 expressed in nM?

// worked examples, log10 IC50 included
{"compound-smiles": "O=C1CC[C@@H](C(=O)N[C@@H](CCCCCS)C(=O)Nc2ccccc2)N1", "experimental-result": 1.77}
{"compound-smiles": "O=C1CCC[C@@H](C(=O)N[C@@H](CCCCCS)C(=O)NCc2ccc(C(F)(F)F)cc2)N1", "experimental-result": 1.36}
{"compound-smiles": "O=C1CCC[C@@H](C(=O)N[C@@H](CCCCCS)C(=O)NCc2cccc(OCc3ccccc3)c2)N1", "experimental-result": 0.95}
{"compound-smiles": "O=C1CCC[C@@H](C(=O)N[C@@H](CCCCCS)C(=O)Nc2ccccc2)N1", "experimental-result": 2.62}
{"compound-smiles": "O=C(CCCCCCS)NCc1ccc(C(F)(F)F)cc1", "experimental-result": 2.57}
{"compound-smiles": "Cc1cccc(CCNC(=O)CCCCCCS)c1", "experimental-result": 2.39}
{"compound-smiles": "Cc1cccc(NC(=O)[C@H](CCCCCS)NC(=O)[C@H]2CCC(=O)N2)c1", "experimental-result": 2.03}
{"compound-smiles": "O=C1CCC[C@@H](C(=O)N[C@@H](CCCCCS)C(=O)NC2CCCC2)N1", "experimental-result": 2.65}

Consider the record given below.
-- ask Request the reported log10 IC50 associated with O=C1CCC[C@H](C(=O)N[C@@H](CCCCCS)C(=O)Nc2ccccc2)N1
-- reply 2.03

====

assay-name: Solubility of the compound in Solutol HS15
recorded-metric: solubility

-- ask Request the reported solubility associated with CC(=O)SCCCCC[C@H](NC(=O)[C@H]1CCC(=O)N1)C(=O)Nc1ccccc1
-- reply > 10000 µg/mL

====

solubility values, listed per item
assay-name: Solubility of the compound in water
Type: physicochemical

// worked examples, solubility included
{"compound-smiles": "CC(=O)SCCCCCCC(=O)Nc1ccccc1", "solubility": "> 1000 µg/mL"}
{"compound-smiles": "CC(C)C(=O)SCCCCCCC(=O)Nc1ccccc1", "solubility": "> 1000 µg/mL"}

Consider the record given below.
-- ask Request the reported solubility associated with CCOC(=O)SCCCCCCC(=O)Nc1ccccc1
-- reply > 1000 µg/mL

====

measurement-target: Histone deacetylase 11 (Homo sapiens, UniProt Q96DB2)
Sequence (Q96DB2 whole entry): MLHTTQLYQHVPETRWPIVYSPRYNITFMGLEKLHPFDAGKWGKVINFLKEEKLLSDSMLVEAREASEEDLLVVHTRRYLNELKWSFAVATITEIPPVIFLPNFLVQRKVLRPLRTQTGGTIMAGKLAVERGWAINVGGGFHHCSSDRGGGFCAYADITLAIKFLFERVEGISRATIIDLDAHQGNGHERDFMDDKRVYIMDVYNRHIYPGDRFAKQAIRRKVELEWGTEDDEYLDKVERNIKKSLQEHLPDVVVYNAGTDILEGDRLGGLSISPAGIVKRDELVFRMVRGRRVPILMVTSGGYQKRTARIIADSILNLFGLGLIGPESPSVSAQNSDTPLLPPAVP
assay-name: Inhibition of HDAC11 (unknown origin) using fluorogenic tetrapeptide RHKK(Ac) substrate by fluorescence assay
pIC50 values, listed per item
Kindly note that pIC50 refers to -log10 of the concentration in mol/L and answer with the value alone.

{"compound-smiles": "O=C1CCC[C@H](C(=O)N[C@@H](CCCCCS)C(=O)Nc2ccccc2)N1", "recorded-metric": "pIC50", "experimental-result": 8.00}

-- ask Request the reported pIC50 associated with O=C1CC[C@H](C(=O)N[C@@H](CCCCCS)C(=O)Nc2cccc(C(F)(F)F)c2)N1
-- reply 7.36

-- ask Then O=C1CC[C@@H](C(=O)N[C@@H](CCCCCS)C(=O)Nc2ccccc2)N1 ?
-- reply 7.52

-- ask Then O=C1NC[C@H](c2ccccc2)[C@H]1C(=O)N[C@@H](CCCCCS)C(=O)Nc1ccccc1 ?
-- reply 7.92

-- ask Then O=C1NC[C@H](c2ccccc2)[C@@H]1C(=O)N[C@@H](CCCCCS)C(=O)Nc1ccccc1 ?
-- reply 7.89

-- ask Then O=C(CCCCCCS)NCc1cccc(OCc2ccccc2)c1 ?
-- reply 5.74

-- ask Then O=C1CC[C@@H](C(=O)N[C@H](CCCCCS)C(=O)Nc2ccccc2)N1 ?
-- reply 7.85

-- ask Then O=C1C[C@@H](C(=O)N[C@@H](CCCCCS)C(=O)Nc2ccccc2)N1 ?
-- reply 8.00

-- ask Then O=C1CCC[C@@H](C(=O)N[C@@H](CCCCCS)C(=O)Nc2ccccc2)N1 ?
-- reply 8.22

-- ask Then O=C(CCCCCCS)NC1CCCC1 ?
-- reply 6.11

====

assay-name: Half life in human hepatocytes at 5 uM by LCMS/MS analysis
Format: ADME, cell-based, Hepatocyte
recorded-metric: half-life at 5 µM
Reply with a number, then the unit it belongs to.

{"molecule": "CC(=O)SCCCCC[C@H](NC(=O)[C@H]1CCC(=O)N1)C(=O)Nc1ccccc1", "experimental-result": "2.7 min"}

-- ask Request the reported half-life at 5 µM associated with O=C1CC[C@@H](C(=O)N[C@H](CCCCCS)C(=O)Nc2ccccc2)N1
-- reply 45 min

-- ask Then O=C(CCCCCCC(=O)Nc1ccccc1)NO [VORINOSTAT] ?
-- reply 47.5 min

====

hepatocyte CLint at 5 µM values, listed per item
assay-name: Intrinsic clearance in human hepatocytes assessed per million cells at 5 uM by LCMS/MS analysis
Format: ADME, cell-based, Hepatocyte
cond: read-out: CLH
Reply with a number, then the unit it belongs to.

{"molecule": "O=C1CC[C@@H](C(=O)N[C@H](CCCCCS)C(=O)Nc2ccccc2)N1", "experimental-result": "15.4 µL/min/1e6 cells"}
{"molecule": "O=C(CCCCCCC(=O)Nc1ccccc1)NO [VORINOSTAT]", "experimental-result": "14.7 µL/min/1e6 cells"}

Consider the record given below.
-- ask Request the reported hepatocyte CLint at 5 µM associated with CC(=O)SCCCCC[C@H](NC(=O)[C@H]1CCC(=O)N1)C(=O)Nc1ccccc1
-- reply 252 µL/min/1e6 cells

====

Here's what we have: pIC50 numbers for Histone deacetylase 2 (Homo sapiens, UniProt Q92769).
Kindly note that pIC50 refers to -log10 of the concentration in mol/L and answer with the value alone.

// worked examples, pIC50 included
{"compound-smiles": "O=C(CCCCCCS)NCc1ccc(C(F)(F)F)cc1", "pIC50": 4.71}
{"compound-smiles": "O=C1CCC[C@H](C(=O)N[C@@H](CCCCCS)C(=O)Nc2ccccc2)N1", "pIC50": 7.47}
{"compound-smiles": "O=C1CC[C@@H](C(=O)N[C@H](CCCCCS)C(=O)Nc2ccccc2)N1", "pIC50": 7.11}
{"compound-smiles": "O=C1NC[C@H](c2ccccc2)[C@@H]1C(=O)N[C@@H](CCCCCS)C(=O)Nc1ccccc1", "pIC50": 6.77}
{"compound-smiles": "O=C1CC[C@@H](C(=O)N[C@@H](CCCCCS)C(=O)Nc2ccccc2)N1", "pIC50": 7.48}
{"compound-smiles": "CN1C(=O)CCC[C@H]1C(=O)N[C@@H](CCCCCS)C(=O)Nc1ccccc1", "pIC50": 7.15}

-- ask Request the reported pIC50 associated with O=C1NC[C@@H](c2ccccc2)[C@H]1C(=O)N[C@@H](CCCCCS)C(=O)Nc1ccccc1
-- reply 5.72

-- ask Then O=C1NCCC[C@@H]1C(=O)N[C@@H](CCCCCS)C(=O)Nc1ccccc1 ?
-- reply 7.32

-- ask Then Cc1cccc(NC(=O)[C@H](CCCCCS)NC(=O)[C@@H]2CCCC(=O)N2)c1 ?
-- reply 7.82

====

Tested on: NCI-H460
assay-name: Cytotoxicity against human NCI-H460 cells after 24 hrs by SRB assay
Assay type: functional, cell-based
cond: NCI-H460, 24 h
recorded-metric: pIC50
Kindly note that pIC50 refers to -log10 of the concentration in mol/L and answer with the value alone.

-- ask Reported pIC50 for NCI-H460, given CC(=O)SCCCCC[C@H](NC(=O)[C@H]1CCC(=O)N1)C(=O)Nc1cccc(C)c1 ?
-- reply 7.40

-- ask Then CC(=O)SCCCCC[C@H](NC(=O)[C@H]1CCC(=O)N1)C(=O)Nc1ccccc1 ?
-- reply 7.15

-- ask Then CC(=O)SCCCCC[C@H](NC(=O)[C@@H]1CC(=O)N1)C(=O)Nc1ccccc1 ?
-- reply 7.30

====

measurement-target: Protein deacetylase HDAC6 (Homo sapiens)
Sequence (Q9UBN7 whole entry): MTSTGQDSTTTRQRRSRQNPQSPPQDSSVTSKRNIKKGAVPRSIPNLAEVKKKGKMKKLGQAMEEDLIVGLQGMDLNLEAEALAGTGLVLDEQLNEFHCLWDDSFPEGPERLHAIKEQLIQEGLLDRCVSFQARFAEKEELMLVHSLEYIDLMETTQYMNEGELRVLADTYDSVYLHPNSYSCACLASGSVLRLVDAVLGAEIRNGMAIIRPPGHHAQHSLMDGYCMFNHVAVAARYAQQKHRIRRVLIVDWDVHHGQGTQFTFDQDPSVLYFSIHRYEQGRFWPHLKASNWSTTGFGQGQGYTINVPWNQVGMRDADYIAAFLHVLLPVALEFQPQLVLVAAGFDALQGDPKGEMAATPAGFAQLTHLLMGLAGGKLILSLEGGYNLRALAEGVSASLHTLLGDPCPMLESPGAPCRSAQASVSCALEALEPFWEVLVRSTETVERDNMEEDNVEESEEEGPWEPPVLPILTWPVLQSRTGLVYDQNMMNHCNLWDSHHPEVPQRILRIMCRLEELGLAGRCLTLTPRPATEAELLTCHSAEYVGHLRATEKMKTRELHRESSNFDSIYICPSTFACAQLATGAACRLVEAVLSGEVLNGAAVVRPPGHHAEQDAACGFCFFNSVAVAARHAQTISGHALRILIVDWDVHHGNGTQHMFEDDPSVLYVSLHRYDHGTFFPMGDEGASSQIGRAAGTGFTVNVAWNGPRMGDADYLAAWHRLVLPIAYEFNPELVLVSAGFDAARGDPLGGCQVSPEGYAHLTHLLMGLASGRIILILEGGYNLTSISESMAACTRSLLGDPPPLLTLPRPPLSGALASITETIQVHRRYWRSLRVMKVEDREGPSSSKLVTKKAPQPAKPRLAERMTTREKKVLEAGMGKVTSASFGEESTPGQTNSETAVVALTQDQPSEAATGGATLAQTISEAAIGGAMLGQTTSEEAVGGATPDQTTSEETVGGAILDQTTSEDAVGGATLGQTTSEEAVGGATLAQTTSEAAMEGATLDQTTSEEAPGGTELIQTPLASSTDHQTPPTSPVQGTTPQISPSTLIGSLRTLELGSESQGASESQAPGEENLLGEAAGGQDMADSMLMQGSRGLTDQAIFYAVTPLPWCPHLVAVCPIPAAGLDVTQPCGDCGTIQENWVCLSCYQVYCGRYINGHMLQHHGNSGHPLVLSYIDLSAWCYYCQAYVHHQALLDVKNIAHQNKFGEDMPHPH
pIC50 values, listed per item
Kindly note that pIC50 refers to -log10 of the concentration in mol/L and answer with the value alone.

// worked examples, pIC50 included
{"compound-smiles": "O=C1CCC[C@@H](C(=O)N[C@@H](CCCCCS)C(=O)NC2CCCC2)N1", "pIC50": 8.22}
{"compound-smiles": "CC(C)(C)OC(=O)N[C@@H](CCCCCS)C(=O)NC1CCCC1", "pIC50": 5.95}

Consider the record given below.
-- ask Request the reported pIC50 associated with Cc1cccc(CCNC(=O)[C@H](CCCCCS)NC(=O)[C@@H]2CCCC(=O)N2)c1
-- reply 7.82
